# protocol details: protein stability index of a GFP-peptide fusion (GPS, HEK-293T) (PSI 1-6); higher = more stable;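 further: 24-mer peptide tiles fused after GFP, lentivirally expressed, FACS-sorted into six equal bins by GFP/DsRed ratio, decoded by Illumina sequencing, PSI is the read-weighted mean bin number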
# protocol conditions: treatment: DMSO; c terminus: a fixed tail appended
I'd be grateful if you could share measured protein stability index for these entries.
Numbers only.

A selection of reference data follows.
                            residues        measured_quantity  reported_result
0  STWSDPSVNISLDNLLPGMQPSKP [CLINT1]  protein stability index              4.3
1  KCKSTLSPPEASPGPPAAPRARRR [PWWP2B]  protein stability index             5.19
2    SPGELEEDLLLPGACPGADEAGGG [WEE1]  protein stability index             5.42
3  LSVRSVFFGVFQSFVVLLYILDNE [CLPTM1]  protein stability index             3.19
4    YTYRDYGHSSSRDDYPSRGYSDRD [RBMX]  protein stability index             3.94
5   KHRIRRVLIVDWDVHHGQGTQFTF [HDAC6]  protein stability index             3.35

*Q* I would be grateful if you could share the reported protein stability index for TLSGTCLLIANKRQSYDISIVAQV [CARM1] .
*A* 2.38
